target: SyPII (Synechococcus elongatus); construct: Strep-tag; made in house; assay: ITC binding of small effector molecules to cyanobacterial SyPII; design: species or system Synechococcus elongatus PCC 7942; details: titrant alone, read-out: Kd3 (three-sites binding model)
Sequence (P0A3F4 whole entry): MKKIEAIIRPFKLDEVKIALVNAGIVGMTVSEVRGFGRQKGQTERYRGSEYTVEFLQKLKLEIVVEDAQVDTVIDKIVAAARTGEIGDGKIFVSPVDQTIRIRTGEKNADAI
Readout Kind: Kd

| Smiles Representation | Measured Value |
| --- | --- |
| Nc1ncnc2c1ncn2[C@@H]1O[C@H](COP(=O)(O)OP(=O)(O)OP(=O)(O)O)[C@@H](O)[C@H]1O | 85.4 µM |

---

target: PhyscoPII; assay: ITC binding of small effector molecules to plant-moss PhyscoPII; set-up: species or system Physcomitrella patens; settings: titrant alone, read-out: Kd1 (three-sites binding model)
pKd: −log10 of the molar value.
Readout Kind: pKd

| Smiles Representation | Tested System | Readout Kind | Measured Value |
| --- | --- | --- | --- |
| Nc1ncnc2c1ncn2[C@@H]1O[C@H](COP(=O)(O)OP(=O)(O)OP(=O)(O)O)[C@@H](O)[C@H]1O | PhyscoPII | pKd | 5.24 |

---

target: PpPII (Porphyra purpurea); assay: ITC binding of small effector molecules to red algal PpPII; settings: Kd3 (three-sites binding model), in presence 2-OG (1 mM)
pKd: −log10 of the molar value.
Readout Kind: pKd

| Smiles Representation | Measured Value |
| --- | --- |
| Nc1ncnc2c1ncn2[C@@H]1O[C@H](COP(=O)(O)OP(=O)(O)OP(=O)(O)O)[C@@H](O)[C@H]1O | 4.08 |

---

biological target: PhyscoPII; test: ITC binding of small effector molecules to plant-moss PhyscoPII; design: species or system Physcomitrella patens; settings: titrant alone, read-out: Average Kd (one-site binding model)
pKd: −log10 of the molar value.

| Smiles Representation | pKd |
| --- | --- |
| Nc1ncnc2c1ncn2[C@@H]1O[C@H](COP(=O)(O)OP(=O)(O)OP(=O)(O)O)[C@@H](O)[C@H]1O | 4.57 |

---

biological target: CrPII; assay: ITC binding of small effector molecules to green algal CrPII; design: species or system Chlamydomonas reinhardtii; details: in presence 2-OG (2 mM), read-out: Kd2 (three-sites binding model)
Readout Kind: Kd (µM)

| Smiles Representation | Readout Kind | Units Symbol | Measured Value |
| --- | --- | --- | --- |
| Nc1ncnc2c1ncn2[C@@H]1O[C@H](COP(=O)(O)OP(=O)(O)OP(=O)(O)O)[C@@H](O)[C@H]1O | Kd | µM | 53.1 |

---

molecular target: SyPII (Synechococcus elongatus); construct: Strep-tag; made in house; assay: ITC binding of small effector molecules to cyanobacterial SyPII; parameters: species or system Synechococcus elongatus PCC 7942; settings: Kd2 (three-sites binding model), in presence 2-OG (1 mM) and 150 µM ADP
pKd: −log10 of the molar value.
Readout Kind: pKd

| Smiles Representation | Readout Kind | Measured Value |
| --- | --- | --- |
| Nc1ncnc2c1ncn2[C@@H]1O[C@H](COP(=O)(O)OP(=O)(O)O)[C@@H](O)[C@H]1O | pKd | 4.58 |

---

target: PpPII (Porphyra purpurea, UniProt P51254); test: ITC binding of small effector molecules to red algal PpPII; conditions: in presence 2-OG (1 mM), read-out: Kd2 (three-sites binding model)
Sequence (P51254 whole entry): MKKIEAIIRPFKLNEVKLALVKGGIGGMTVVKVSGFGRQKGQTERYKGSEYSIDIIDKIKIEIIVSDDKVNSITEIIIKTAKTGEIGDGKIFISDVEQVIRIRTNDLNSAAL
pKd: −log10 of the molar value.

| Smiles Representation | pKd |
| --- | --- |
| Nc1ncnc2c1ncn2[C@@H]1O[C@H](COP(=O)(O)OP(=O)(O)O)[C@@H](O)[C@H]1O | 4.36 |
